Experiment: osmotic lysis modulators in infected erythrocytes, primary screen, PSAC antagonist project, cell-based, P. falciparum Indochina, OD700, 3 h (AID 1156)
Details: higher = more signal, called active from +8 up or from −8 down
Metric: z-score
Give bare numbers.

In the examples that follow, each entry is paired with its recorded z-score.
• C[N+](C)(C)CCCCNC(=O)[C@H]1C[C@H]2C(=O)NCC(=O)N2[C@H]1c1cccc(OCCO)c1 = -2.28
• C=C(COC)/C(=C/C[C@H](OC(C)=O)c1ccc(OCCO)cc1)c1cnc2ccccc2c1 = 1.05
• Cc1ccc(S[C@]2(C(=O)NCCCN(C)C)CC(=O)N(C3CCCCC3)[C@@H]2c2ccc(CO)cc2I)cc1 = 1.39
• Cc1ccc(S[C@]2(C(=O)NC(C)C)CC(=O)N(Cc3cc(C(F)(F)F)cc(C(F)(F)F)c3)[C@@H]2c2ccc(CO)cc2I)cc1 = -0.365
• O=C1OCCC=C[C@H]2OC34C=CCN(Cc5ccccc5)C(=O)[C@H]3N(CCO)C(=O)[C@@H]4C12 (stereo not given in full) = -0.769
• CC(C)=C1C(=O)C(c2ccccc2)=C2CN3C(=O)N(CCc4ccccc4)C(=O)[C@]3(Cc3ccccc3)[C@H]21 = 1.3
• C=CCC(OC(C)=O)[C@@H]1[C@@H](N(Cc2cccc3ccccc23)C(=O)c2ccc(C)cc2)c2cc(OCCCO)ccc2N1C(=O)c1ccc(-c2ccccc2)cc1 (stereo not given in full) = -1.24
• CCCNC(=O)[C@@H]1c2ccccc2C(=O)N(Cc2cc(F)cc(C(F)(F)F)c2)[C@H]1c1ccc(CO)cc1 = 0.064
• C=CCOC(=O)[C@@H]1[C@H]2C(=O)O[C@H](c3ccccc3)[C@H](c3ccccc3)N2[C@H](c2ccc(OCCOC(=O)[C@H]3C[C@H]4C(=O)N[C@@H](CCCCNC(C)=O)C(=O)N4[C@H]3c3ccc(O)cc3)cc2)[C@@]12C(=O)Nc1ccc(I)cc12 = 0.855
• CC(C)N1CC=CC23O[C@@H]4/C=C\CCCOC(=O)C4[C@H]2C(=O)N(CCCCCO)[C@@H]3C1=O (stereo not given in full) = 0.658

Dear colleague, could you please provide z-score for the compounds listed below?
1. CCCC/C=C/[C@H]([C@@H](O)Cc1ccccc1)N(CC#Cc1ccccc1)Cc1ccccc1Br
2. CCCC=C(CCC)[C@@H](NS(=O)(=O)c1ccc(C(F)(F)F)cc1)c1ccc(-c2ccccc2)cc1
3. C=C(CCCC)C(=O)CC[C@@H](OC(C)=O)c1ccccc1OCCO

[-0.0195, -0.516, -0.566]

Dear colleague, could you please provide z-score for the compounds listed below?
1. Cc1ccc(N2C(=O)c3ccccc3[C@](C)(C(=O)NCC(C)C)[C@@H]2c2ccc(CO)cc2)nc1
2. CCC(=O)[C@]12O[C@@]3([C@@H]4C(=O)OCC[C@@H]41)N(Cc1ccccc1)C(C)=C(C(=O)OC)[C@@H](c1ccccc1)N3C2=O

[1.26, 0.573]
